target: LNX1_2, Q8TBB1; assay: holdup assay; design: key: below the threshold = too weak to quantify, mostly under pKd 3.1 to 4; conditions: plain residues with an end cap or a label only (N-terminal biotin on a linker: ttds)
Sequence (Q8TBB1 371-470): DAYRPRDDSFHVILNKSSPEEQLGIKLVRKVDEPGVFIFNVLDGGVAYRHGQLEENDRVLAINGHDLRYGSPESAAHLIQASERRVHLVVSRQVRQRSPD
QUANTITY MEASURED: pKd

Reference set (5 entries):
>>> result("DPRNTQTSQI [ABRAXAS2, Q15018]")
"below the threshold"
>>> result("QFQYAKESYI [TAGAP, Q8N103]")
"below the threshold"
>>> result("SEKHFRETEV [HTLV1-TAX1, P03409]")
3.71
>>> result("PKRPFVESNV [TANC2, Q9HCD6]")
"below the threshold"
>>> result("LDSQIQETSI [MAP4, P27816]")
"below the threshold"

-- ask // lookup pKd for LCALPKVTTV [AGMAT, Q9BSE5]
-- reply 4.42

-- ask Param item = GGPKEEESPV [SLC16A1, P53985] ; retrieve measured pKd.
-- reply below the threshold
